- Measured Target: GSK3-β (AA 1-420) (Homo sapiens)
- Sequence (P49841 whole entry, the tested form may be a part): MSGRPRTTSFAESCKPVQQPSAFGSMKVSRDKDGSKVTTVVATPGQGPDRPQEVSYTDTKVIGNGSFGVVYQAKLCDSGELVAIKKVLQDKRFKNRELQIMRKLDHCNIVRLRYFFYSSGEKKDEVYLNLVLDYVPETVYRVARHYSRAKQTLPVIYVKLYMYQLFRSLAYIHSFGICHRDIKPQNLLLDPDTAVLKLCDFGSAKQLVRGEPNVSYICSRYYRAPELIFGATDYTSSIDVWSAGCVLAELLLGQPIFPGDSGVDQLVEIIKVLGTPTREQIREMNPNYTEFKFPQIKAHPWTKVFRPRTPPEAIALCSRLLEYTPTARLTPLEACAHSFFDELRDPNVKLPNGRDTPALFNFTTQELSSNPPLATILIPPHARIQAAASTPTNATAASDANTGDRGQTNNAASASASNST
pKi: −log10 of the molar value.
Readings of pKi for the listed molecules

Consider the following illustrative entries.
molecule="CN(C)c1ccc(-c2cccc(Nc3nccc(-c4nccs4)n3)c2)cc1 [Compound I-81]" readout_value="> 7.00"
molecule="Fc1cccc(F)c1Nc1nccc(-c2nccs2)n1 [Compound I-64]" readout_value="< 6.00"
molecule="Fc1ccc(COc2cccc(Nc3nccc(-c4nccs4)n3)c2)cc1F [Compound I-85]" readout_value="> 7.00"

// next item, pKi requested
Q. Request: pKi, test system GSK3-β (AA 1-420) (Homo sapiens), entry c1cc(Nc2nccc(-c3nccs3)n2)cc(OCc2ccncc2)c1 [Compound I-8]
A. > 7.00
